Entries and their switch fluorescence ratio
Test system: ATP;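 also: ATP exposure 15 min at 22 °C before imaging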
Experiment description: switch fluorescence ratio, 500 uM ATP over buffer (Cy3 cluster intensity, sum of 5 cycles each) (fold (ratio)); higher = stronger signal-on switching upon ATP binding; sequences stand for … in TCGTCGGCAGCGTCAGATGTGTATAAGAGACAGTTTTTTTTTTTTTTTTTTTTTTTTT…TC
Condition set: aptamer strand: ATP DNA aptamer (quencher-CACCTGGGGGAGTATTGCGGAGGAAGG + anchor), 100 nM annealed; ATP concentration: 500 uM
Give the value as a plain number.

Record excerpt, results attached:
{"columns": ["Residue sequence", "Test target", "switch fluorescence ratio"],
 "data": [
  ["TTTGGTTTTT", "ATP", 0.999],
  ["TGTTTTGGG", "ATP", 0.992]
]}

Proceed to the following item.
Bench note: what switch fluorescence ratio did ATGGGCACGT show?
0.983
